experiment: Toxicity liver stage against HepG2, at 10uM; type: cell-based; design: test concentration 10 uM, cell line HepG2-A16-CD81EGFP; settings: human, HepG2-A16-CD81EGFP cells; read-out: INHIBITION
Some compounds, each annotated with its measured cytotoxicity at 10 µM.
parameter.measured: cytotoxicity at 10 µM (%)

compound	measurement
O=C(c1ccnnc1)N1CCC2(CCN(c3ccsc3)C2=O)C1 (stereo not drawn)	-139
CCc1c(C(=O)N2CCCN(C(C)=O)CC2)cnn1C(C)(C)C	-3.93
COc1ccccc1C(=O)N1CC(=O)N(Cc2ccco2)CC(O)C1 (stereo not drawn)	4.45
CC(=O)N1CCC(CCc2ccnc(NC(=O)c3ccccn3)c2)CC1	0.15
CCCOc1ccc(C(=O)Oc2cc(=O)n3cccc(C)c3n2)cc1	5.17
Cc1sc2nc(C(F)(F)F)nc(N3CCN(S(C)(=O)=O)CC3)c2c1C	-8.07
Cc1nc(CC(=O)NCCNc2nccc(C(F)(F)F)n2)cs1	14.3
O=S(=O)(Nc1c(F)cccc1N1CCCC1)c1cncc(F)c1	3.22
CCOc1nc2cnccc2n(CC(=O)NCc2ccco2)c1=O	-8.84
Cc1cc(=O)c2ccccc2n1CC1CCN(C(C)C)C1 (stereo not drawn)	4.64
CCCC(O)CNc1cncc(Br)c1 (stereo not drawn)	22.2
O=C(c1ccncc1)N1CCC(Oc2cccc(C(F)(F)F)c2)CC1	14.1
NCc1cnn(-c2ccccc2C(=O)NCCc2ccccn2)c1	-19.5
